- measured on: human BACE-1 (Homo sapiens (Human))
- Sequence (P56817 46-457): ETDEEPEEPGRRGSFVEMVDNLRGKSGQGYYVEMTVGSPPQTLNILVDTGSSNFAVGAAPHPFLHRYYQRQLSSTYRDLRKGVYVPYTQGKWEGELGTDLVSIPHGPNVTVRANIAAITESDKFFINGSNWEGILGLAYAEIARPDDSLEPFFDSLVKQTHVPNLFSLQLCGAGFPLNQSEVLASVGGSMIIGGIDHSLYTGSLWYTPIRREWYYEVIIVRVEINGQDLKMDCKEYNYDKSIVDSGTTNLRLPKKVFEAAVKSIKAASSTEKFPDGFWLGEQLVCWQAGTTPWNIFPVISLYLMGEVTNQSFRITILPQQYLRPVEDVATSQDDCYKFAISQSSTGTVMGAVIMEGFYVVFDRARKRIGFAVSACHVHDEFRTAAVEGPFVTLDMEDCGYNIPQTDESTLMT
- assay comment: Test 1: Inhibition of human BACE-1
- test parameters: read-out: BACE-1 IC50; mean IC50, recombinant BACE-1, acetate buffer pH 4.5, fluorescence-quenched peptide substrate
pIC50: −log10 of the molar value. Structures can show the parent of a compound that is named as a salt.
assay metric: pIC50

| compound | measured on | assay metric | endpoint value |
| --- | --- | --- | --- |
| NC1=NC(CF)(c2cc(NC(=O)c3ccc(Br)cn3)cnc2Cl)COC1 (stereo not shown) [Example 18, hydrochloride] | human BACE-1 (Homo sapiens (Human)) | pIC50 | 6.85 |
| C[C@@]1(c2cccc(NC(=O)c3ncc(Br)cc3Cl)n2)CO[C@@](C)(C(F)(F)F)C(N)=N1 | human BACE-1 (Homo sapiens (Human)) | pIC50 | 7.89 |

(I) COc1cnc(C(=O)Nc2ccc(F)c([C@]3(C)CO[C@@](C)(C(F)(F)F)C(N)=N3)n2)c(C)c1
(II) Cc1cc(C#N)cnc1C(=O)Nc1ccc(F)c([C@@]2(C(F)F)COCC(N)=N2)n1
Could you tell me which of I and II has the lower pIC50 reading? Kindly give the label for the entry you pick.
II

(I) C[C@@]1(c2cccc(NC(=O)c3ccc(Br)cn3)n2)COCC(N)=N1
(II) C[C@@]1(c2cccc(NC(=O)c3ccc(C#N)cn3)n2)CO[C@@](C)(C(F)(F)F)C(N)=N1
(III) C[C@]1(c2cccc(NC(=O)c3ccc(C#N)cn3)n2)CO[C@@](C)(C(F)(F)F)C(N)=N1 [Example 9, hydrochloride]
(IV) Cc1cc(C#N)cnc1C(=O)Nc1cccc([C@]2(C)CO[C@@](C)(C(F)(F)F)C(N)=N2)n1
Ascending sort, pIC50. Give the labels in the order specified.
III, I, II, IV
(III: 5.21, I: 6.41, II: 7.41, IV: 8.30)
